TEST DESCRIPTION: Inhibition of West Nile virus NS2B-NS3 serine protease using Pyr-RTKR-AMC as substrate incubated for 1 hr prior to substrate addition measured every 45 secs for 1 hr by fluorescence assay
pIC50: −log10 of the molar value.
READOUT: pIC50

>>> value_measured("N=C(N)NCCCCNC(=O)[C@H](CCCCN)NC(=O)[C@H](CCCCN)NC(=O)c1ccccc1")
4.41
>>> value_measured("C[C@H](NCC(=O)c1ccc(-c2ccccc2)cc1)C(=O)N[C@@H](CCCCN)C(=O)NCCCCNC(=N)N")
4.27
>>> value_measured("N=C(N)NCCCCNC(=O)[C@H](CCCCN)NC(=O)[C@H](CCCCN)NC(=O)Cc1ccccc1Cl")
5.59

[A] N=C(N)NCCCCNC(=O)[C@H](CCCCN)NC(=O)[C@H](Cc1ccc(O)cc1)NCC(=O)c1ccc(-c2ccccc2)cc1
[B] Cc1ccc(CC(=O)N[C@@H](CCCCN)C(=O)N[C@@H](CCCCN)C(=O)NCCCCNC(=N)N)cc1
Please indicate which entry, A or B , has the lower recorded pIC50 value. Give the chosen item's label as your response.
A

###

TEST DESCRIPTION: Inhibition of West Nile virus NS2B-NS3 serine protease using Pyr-RTKR-AMC as substrate incubated for 1 hr prior to substrate addition measured every 45 secs for 1 hr by fluorescence assay
READOUT: IC50 (µM)

Look over these answered cases.
>>> value_measured("N=C(N)NCCCCNC(=O)[C@H](CCCCN)NC(=O)[C@H](CCCCN)NC(=O)c1cccc2ccccc12")
33.3
>>> value_measured("CC(C)CC(=O)N[C@@H](CCCCN)C(=O)N[C@@H](CCCCN)C(=O)NCCCCNC(=N)N")
19.2
>>> value_measured("N=C(N)NCCCCNC(=O)[C@H](CCCCN)NC(=O)[C@H](CCCNC(=N)N)NCC(=O)c1ccc(-c2ccccc2)cc1")
19.1

[P] CCC(=O)N[C@@H](CCCCN)C(=O)N[C@@H](CCCCN)C(=O)NCCCCNC(=N)N
[Q] N=C(N)NCCCCNC(=O)[C@H](CCCCN)NC(=O)[C@H](CCCCN)NC(=O)Cc1cccc(Cl)c1
Please indicate which entry, P or Q , has the lower recorded IC50 value. Give the chosen item's label as your response.
Q
(Q: 9.6 µM, P: 19.1 µM)

Each recorded value in this set is attributed to ChEMBL document CHEMBL2331358.
